FYI, the data here is from PubChem BioAssay (NCI).

Form field: TGI (one value per entry).
# Tested on: DMS 273 small cell lung
# Protocol Text: NCI tumour cell line growth inhibition, 48 h

Examples from the recorded data:
CN1N=CSC12C(=O)N(c1ccccc1)C(=O)N2c1ccccc1 (stereo not drawn) = > 100 µM
CCc1c(C#N)c(=O)[nH]c(=O)n1CCN1CCN(C(=O)NCCCCCCNC(=O)N2CCN(CCn3c(CC)c(C#N)c(=O)[nH]c3=O)CC2)CC1 = > 100 µM

Output measured TGI for this item: c1cc[c]([Sn][c]2ccccc2)cc1 35.9 µM

----------
# Tested on: COLO 205 colon
# Protocol Text: NCI tumour cell line growth inhibition, 48 h; in the data active = GI50 below about 0.43 µM; inactive = the rest
Output constraint: value belongs to 1 (yes) = active, 0 (no) = inactive

Dear all, I need the recorded test outcome for CCCCN(CCCC)Cc1cc(Nc2ccnc3cc(Cl)ccc23)ccc1O , thank you. 0 (no)

# fetch the recorded call for COc1cc(C)ccc1C(=O)c1ccc(C)cc1OC here 0 (no)

What was the test verdict on Cc1ccc2cnc(N)c(C#Cc3cc(C(=O)Nc4ccc(CN5CCN(C)CC5)c(C(F)(F)F)c4)cnc3C)c2c1 ? 1 (yes)

What is the recorded call for this compound in the test? CO/N=C(\COc1ccc2c(c1)[nH]c1ccccc12)c1ccc(OC)cc1 0 (no)

What did this assay record as the result for CC(=O)c1c(C(F)(F)F)n([O-])c2ccccc2[n+]1=O ? 0 (no)

What call does the record list for Oc1cccc(Nc2nc3ccccc3c3occc23)c1 ? 0 (no)

Outcome logged for COc1cc(/C=C/C(=O)/C=C/c2cc(OC)c3c(c2)OCO3)cc2c1OCO2 in this assay: 0 (no)

Given Clc1ccc(-c2cn3ccnc3c(-c3ccc(Cl)cc3)n2)cc1 , state the outcome it received in this test. 0 (no)

Please indicate how the test categorized N#CC(C#N)=C/C=C(\Cl)c1ccc(Cl)cc1 . 0 (no)

So what was the verdict on O=C(Oc1cccnc1)c1cccnc1Nc1ccnc(C(F)(F)F)c1 in this test? 0 (no)

Please indicate how the test categorized N#C[Se]Cc1cc(-c2ccccc2)n(-c2ccc(S(N)(=O)=O)cc2)n1 . 0 (no)

Field: outcome | Entry: O=S(=O)(/N=c1\scc(-c2ccccc2)n1-c1ccccc1)c1ccc(N2N=C3c4ccccc4CC3C2c2ccc(Cl)cc2)cc1 (stereo unspecified) 0 (no)

// param item: CC[O-].CC[O-].O=C([CH-]C(=O)c1ccccc1)CCCCCCCCC(=O)[CH-]C(=O)c1ccccc1.[Ti+4] ; yields the recorded call 0 (no)

Short answer needed: outcome of this test for Nc1nc2ccc(-c3nc4ccc5[nH]ncc5c4c4c3CCC4)cc2s1 ? 1 (yes)

Each compound tested received a call. Report the one for O=C(Nc1cccc(Cl)c1)Nn1cnnc1 . 0 (no)

Which outcome did this test record for the compound c1cc[c]([Sn][c]2ccccc2)cc1 ? 0 (no)
